Data provenance is patent US20250376535A1.

Biological target: T1, Human CD40 antigen (recombinant, BLI) (human, UniProt P25942 21-193)
T1 construct: also called rh-CD40
T1 sequence (P25942 21-193 limits assumed): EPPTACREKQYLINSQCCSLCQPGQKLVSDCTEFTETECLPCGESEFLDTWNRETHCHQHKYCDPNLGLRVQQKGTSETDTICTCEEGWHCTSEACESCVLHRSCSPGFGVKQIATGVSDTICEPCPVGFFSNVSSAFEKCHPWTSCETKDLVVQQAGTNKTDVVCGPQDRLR
Test: BLI, VHH-His on anti-His tips, human CD40 in solution;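 also: kinetics measured at 30 °C in PBS pH 7.2, association tracked for 200 s, then dissociation followed in PBS lacking CD40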
Overview of recorded Kd for various binders
MEASUREMENT LABEL: Kd (nM)

{"BINDER": "pgDD40-SZ-1 (VHH, not shown: small tags and cut ends) VHH: QVQLVESGGALAQPGGSLRLSCEASTNVRSVNAMAWYRQGPGKPRELVANITSDDATYYADSVKGRFTLSREGARNTVYLQMNSLKPEDTAVYQCNVHYTSWGGIRRDYWGRGTQVTVSS", "UNIT SYMBOL": "nM", "INEQUALITY SIGN": "<", "OBSERVED": 0.001}
{"BINDER": "pgDD40-HZ-28 (VHH, not shown: small tags and cut ends) VHH: EVQLVESGGGLVQAGGSLRLSCVASERTFTPVRMGWFRQAPGKEREIVAAITWSDGSTYYADAVKGRFTISRDNALNAVYLQIDSLKPEDTAVYVCAASTSPYSTHLQFRYWGQGTQVTVSS", "UNIT SYMBOL": "nM", "INEQUALITY SIGN": "=", "OBSERVED": 4.06}
{"BINDER": "pgDD40-HZ-24 (VHH, not shown: small tags and cut ends, also called pgDD40-HG-24) VHH: EVQLVESGGGSVQAGGSLRLSCAASLSTFSNYRMGWFRRAPGKERELVARIEPHGVVDYGDSVKGRFTISRDNAKNTVTVYLHMNSLKPEDTAVYYCNALRLISGRYDPLFSSWGQGTQVTVSS", "UNIT SYMBOL": "nM", "INEQUALITY SIGN": "<", "OBSERVED": 0.001}
{"BINDER": "pgDD40-HZ-15 (VHH, not shown: small tags and cut ends) VHH: EVQLVESGGGLVQAGGSLRLSCAASGFTFDDYAIGWFRQAPGKEREGVSCLSKNVGNTYYADSVKGRFTISSDNAKNTVYLQMNSLKPEDTAVYYCAKGSGYGCYDFPRYAVWGQGTQVTVSS", "UNIT SYMBOL": "nM", "INEQUALITY SIGN": "=", "OBSERVED": 3.12}
{"BINDER": "pgDD40-SZ-5 (VHH, not shown: small tags and cut ends) VHH: QVQLVESGGALAQPGGSLRLSCEASENVRSVNAMAWYRQGPGKPRELVANITSGDATYYADSVKGRFTLSREGARNTVYLQMNSLKPEDTAVYQCNVHYTSWGGIRRDYWGRGTQVTVSS", "UNIT SYMBOL": "nM", "INEQUALITY SIGN": "<", "OBSERVED": 0.001}
{"BINDER": "pgDD40-SZ-7 (VHH, not shown: small tags and cut ends) VHH: QVQLVESGGALAQPGGSLRLSCEASATVRSVNAMAWYRQGPGKPRELVANITSGDTTYYADSVKGRFTLSREGARNTVYLQMNSLKPEDTAVYQCNIHYTSTGGIRRDYWGRGTQVTVSS", "UNIT SYMBOL": "nM", "INEQUALITY SIGN": "<", "OBSERVED": 0.001}
{"BINDER": "pgDD40-SZ-3 (VHH, not shown: small tags and cut ends) VHH: QVQLVESGGGLVQAGDSLRLSCTASGRAFNTYTMAWFRQAPGKERDFVAAISRDGTITHYADSVKGRFTTTRDNAKNTMYLQMSSLKYDDTAVYYCAARRVGAVPERESAYEHWGQGTQVTVSS", "UNIT SYMBOL": "nM", "INEQUALITY SIGN": "=", "OBSERVED": 0.106}
{"BINDER": "pgDD40-SZ-2 (VHH, not shown: small tags and cut ends) VHH: EVQLVESGGALAQPGGSLRLSCEASATIRSVNAMAWYRQGPGKPREMVANITSGDTTYYADSVKGRFTLSREGARNTVYLQMNSLKPEDTAVYQCNIHYTSTGGIRRDYWGRGTQVTVSS", "UNIT SYMBOL": "nM", "INEQUALITY SIGN": "=", "OBSERVED": 0.0047}
